Source of measurements: patent US4000147A

# Procedure text: acute toxicity, intraperitoneal (Table 2)
# Condition notes: mouse, in vivo, ip, mice, approximate values
Property: LD50 (mg/kg)
Respond with the bare value in mg/kg.

Consider the worked cases shown below.
{"Chem smiles": "C[n+]1nc([S-])sc1-c1cccc(F)c1", "Unit tag": "mg/kg", "LD50": 1000}
{"Chem smiles": "CCC[n+]1nc([S-])sc1-c1ccccc1", "Unit tag": "mg/kg", "LD50": 68.1}
{"Chem smiles": "C[n+]1nc([S-])sc1-c1cccc(C(F)(F)F)c1", "Unit tag": "mg/kg", "LD50": 681}

As a next step, examine the compound that follows.
**Q:** For the compound shown here, CCC[n+]1nc([S-])sc1-c1ccc(Cl)cc1 , give the reported LD50.
**A:** 681
